- Tested on: soybean (Glycine max)
- assay-procedure: Test F pre-/postemergence: soybean
- Format: in vivo
- condition-parameters: Preemergence; 125 g ai/ha; scale 0 to 100
parameter: Plant response rating, Soybean
// keep it numeric: no unit symbol after the value

State the recorded Plant response rating, Soybean for this entry: COc1nn(-c2cccc(F)c2)nc1Cc1ccnc(C(F)(F)F)c1
0

What Plant response rating, Soybean value was documented for this compound, CCc1nn(-c2ccc(C(F)(F)F)cc2)nc1Cc1ccnc(C(F)(F)F)c1 ?
30

Field request: Plant response rating, Soybean | item: CCOc1nn(-c2ccc(F)cc2)nc1Cc1ccnc(C(F)(F)F)c1
35

Next:
What value of Plant response rating, Soybean has been recorded for this entry: Cc1nn(-c2ccc(F)cc2F)nc1Oc1ccnc(C(F)(F)F)c1
0

====

Listing of recorded Crabgrass, Large plant response rating by entry.
- Test system: crabgrass, large (large crabgrass, Digitaria sanguinalis)
- assay-procedure: Test A pre-/postemergence: crabgrass, large
- Assay type: in vivo
- condition-parameters: Postemergence, 125 g ai/ha; 0 to 100 scale, 0 is no effect, 100 is complete control
Give the value as a plain number.

As a guide, the following entries are already answered.
Fill in: Crabgrass, Large plant response rating of Cc1nn(-c2ccc(C(F)(F)F)cc2)nc1Cn1cc(C(F)(F)F)cn1 is ___
20

Recorded Crabgrass, Large plant response rating of Cc1nn(-c2ccc(C(F)(F)F)cc2)nc1Oc1cccc(OC(F)(F)F)c1 , please.
40

Please report the recorded Crabgrass, Large plant response rating for Cc1nn(-c2ccc(F)cc2)nc1Cn1c(Cl)nc(C(F)(F)F)c1Cl .
0

Quick check: Crabgrass, Large plant response rating of COc1nn(-c2ccc(F)cc2)nc1C(=O)c1ccnc(C(F)(F)F)c1 ?
10

Note: attention shifts to another entry.
Entry Cc1ccc(-n2nc(C)c(C(=O)c3cccc(C(F)(F)F)c3)n2)cc1 has what Crabgrass, Large plant response rating?
30

====

- System: barnyardgrass (Echinochloa crus-galli)
- assay-procedure: Test A pre-/postemergence: barnyardgrass
- Type: in vivo
- condition-parameters: Preemergence, 125 g ai/ha; 0 to 100 scale (0 no effect, 100 complete control)
Listed here: items and their measured Plant response rating, Barnyardgrass.
Just the number, please, no unit after it.

Name the reported Plant response rating, Barnyardgrass value associated with the molecule Cc1nn(-c2ccc(C(F)(F)F)cc2)nc1Cn1c(Cl)nc(C(F)(F)F)c1Cl
0

====

- Tested on: ragweed (common ragweed, Ambrosia elation)
- assay-procedure: Test C pre-/postemergence: ragweed
- Assay type: in vivo
- condition-parameters: Postemergence, 125 g ai/ha; scale 0 to 100, 0 no effect, 100 complete control
parameter: Plant response rating, Ragweed
Note: the reply should be a number with no unit written.

Observe how each entry below is paired with its result.
Enter reported Plant response rating, Ragweed observed with ragweed (common ragweed, Ambrosia elation) for Cc1nn(-c2ccc(F)c(C(F)(F)F)c2)nc1Cc1ccnc(C(F)(F)F)c1 [Compound 156]
75

What is its Plant response rating, Ragweed for ragweed (common ragweed, Ambrosia elation)? Entry: CCc1nn(-c2ccc(F)c(F)c2)nc1Oc1ccnc(C(F)(F)F)c1 [Compound 171]
55

# value lookup — system ragweed (common ragweed, Ambrosia elation), readout Plant response rating, Ragweed, item Cc1nn(-c2ccc(C(F)(F)F)c(F)c2)nc1Oc1ccnc(C(F)(F)F)c1 [Compound 148]
85

Give recorded Plant response rating, Ragweed with ragweed (common ragweed, Ambrosia elation) for the following compound: FCc1nn(-c2ccc(F)cc2)nc1Oc1ccnc(C(F)(F)F)c1 [Compound 160]
40

Quick check: Plant response rating, Ragweed on ragweed (common ragweed, Ambrosia elation), item Fc1ccc(-n2nc(Cc3ccnc(C(F)(F)F)c3)c(OC(F)F)n2)cc1 [Compound 25] ?
60

Next:
// map COc1nn(-c2cccc(F)c2)nc1Cc1ccnc(C(F)(F)F)c1 [Compound 139] to recorded Plant response rating, Ragweed (system: ragweed (common ragweed, Ambrosia elation))
45

Observed Plant response rating, Ragweed on ragweed (common ragweed, Ambrosia elation) for COc1nn(-c2ccc(C(F)(F)F)cc2)nc1Cc1ccnc(C(F)(F)F)c1 [Compound 15] , please.
70

Request - read-out Plant response rating, Ragweed | tested on ragweed (common ragweed, Ambrosia elation) | compound CCc1nn(-c2ccc(C(F)(F)F)cc2)nc1Cc1ccnc(C(F)(F)F)c1 [Compound 155]
85

GET /values?readout=Plant response rating, Ragweed&system=ragweed (common ragweed, Ambrosia elation)&item= FC(F)(F)COc1nn(-c2ccc(C(F)(F)F)cc2)nc1Cc1ccnc(C(F)(F)F)c1 [Compound 14]
60

====

# reported Plant response rating, Crabgrass, Large; entries follow
- Test system: large crabgrass (Digitaria sanguinalis)
- assay-procedure: Test C pre-/postemergence: large crabgrass
- Assay type: in vivo
- condition-parameters: Postemergence, 250 g ai/ha; scale 0 to 100
The answer should be written as a number, with no unit following it.

Solved entries:
Look up Plant response rating, Crabgrass, Large: FC(F)(F)COc1nn(-c2ccc(C(F)(F)F)cc2)nc1Cc1ccnc(C(F)(F)F)c1
60

Bench note: what Plant response rating, Crabgrass, Large did Cc1nn(-c2ccc(C(F)(F)F)cn2)nc1Cc1cccc(C(F)(F)F)c1 show?
65

If you can, please state the reported Plant response rating, Crabgrass, Large value of FC(F)Oc1nn(-c2ccc(C(F)(F)F)cc2)nc1Cc1ccnc(C(F)(F)F)c1 .
40

Using the record for Cc1nn(-c2ccc(C(F)(F)F)cn2)nc1Oc1ccnc(C(F)(F)F)c1 , report its Plant response rating, Crabgrass, Large.
35

Give the measured Plant response rating, Crabgrass, Large of CCc1nn(-c2ccc(C(F)(F)F)cc2)nc1Oc1ccnc(C(F)(F)F)c1 .
80

Would you kindly look at the next entry?
For the compound shown here, CCc1nn(-c2ccc(C(F)(F)F)c(F)c2)nc1Oc1ccnc(C(F)(F)F)c1 , give the reported Plant response rating, Crabgrass, Large.
85

====

- Test system: goosegrass (Eleusine indica)
- assay-procedure: Test C pre-/postemergence: goosegrass
- Type: in vivo
- condition-parameters: Postemergence, 125 g ai/ha; scale 0 to 100, 0 no effect, 100 complete control
Param label: returns Met when Plant response rating, Goosegrass < 40, returns Not met otherwise, including exact equality.

Here's an entry: FC(F)(F)COc1nn(-c2ccc(C(F)(F)F)cc2)nc1Cc1ccnc(C(F)(F)F)c1 . Is its Plant response rating, Goosegrass below 40?
Not met

Continuing:
Consider the compound COc1nn(-c2ccc(C(F)(F)F)cc2)nc1Cc1ccnc(C(F)(F)F)c1 . Is its Plant response rating, Goosegrass strictly less than 40?
Not met

Strictly below 40: is that where Plant response rating, Goosegrass of FC(F)(F)c1ccc(-n2nc(Cl)c(Cc3ccnc(C(F)(F)F)c3)n2)cc1 sits?
Met

I'd appreciate it if you could check whether Cc1nn(-c2ccc(C(F)(F)F)cn2)nc1Cc1cccc(C(F)(F)F)c1 has Plant response rating, Goosegrass smaller than 40.
Not met

Does CCOc1nn(-c2ccc(F)cc2)nc1Cc1ccnc(C(F)(F)F)c1 have Plant response rating, Goosegrass strictly under 40?
Not met

====

Recorded Plant response rating, Pigweed, one value per entry.
- System: pigweed (Amaranthus retroflexus)
- assay-procedure: Test A pre-/postemergence: pigweed
- Assay type: in vivo
- condition-parameters: Postemergence, 125 g ai/ha; 0 to 100 scale, 0 is no effect, 100 is complete control

Examples with answers:
Plant response rating, Pigweed for CCc1nn(-c2ccc(F)c(C(F)(F)F)c2)nc1Oc1ccnc(C(F)(F)F)c1 ?
100

Given the entry CCc1nn(-c2ccc(C(F)(F)F)c(F)c2)nc1Oc1ccnc(C(F)(F)F)c1 , report its measured Plant response rating, Pigweed.
100

Looking for the measured Plant response rating, Pigweed of CCc1nn(-c2ccc(C(F)(F)F)cc2)nc1Cc1ccnc(C(F)(F)F)c1 , can you help?
100

Reported Plant response rating, Pigweed for CCCc1nn(-c2ccc(F)cc2F)nc1Oc1ccnc(C(F)(F)F)c1 : what is it?
100

I am curious: what Plant response rating, Pigweed value has been reported for CCc1nn(-c2ccc(F)cc2)nc1Cc1ccnc(C(F)(F)F)c1 ?
100

---
Which Plant response rating, Pigweed reading was recorded for the compound FC(F)(F)c1cccc(-n2nc(Oc3ccnc(C(F)(F)F)c3)c(C3CC3)n2)c1 [Compound 199] ?
20

I'd like to know its Plant response rating, Pigweed. The compound in question is FC(F)(F)c1cccc(-n2nc(Oc3ccnc(C(F)(F)F)c3)c(C3CC3)n2)c1 [Compound 200]
50

Field request: Plant response rating, Pigweed | item: CON=C(c1cccc(C(F)(F)F)c1)c1nn(-c2ccnc(C(F)(F)F)c2)nc1C
100

====

- Test system: nutsedge, yellow (yellow nutsedge, Cyperus esculentus)
- assay-procedure: Test C pre-/postemergence: nutsedge, yellow
- Assay type: in vivo
- condition-parameters: Preemergence, 125 g ai/ha; scale 0 to 100, 0 no effect, 100 complete control
- From the text: […] Treated plants and controls were maintained in a greenhouse for 13 to 15 days, after which time all species were compared to controls and visually evaluated. […]
parameter: Plant response rating, Nutsedge, Yellow
Number only, please.

Record excerpt, results attached:
Field request: Plant response rating, Nutsedge, Yellow | item: COc1nn(-c2ccc(C(F)(F)F)cc2)nc1Cc1ccnc(C(F)F)c1 [Compound 138]
5

// Plant response rating, Nutsedge, Yellow lookup, key: CCOc1nn(-c2ccc(Cl)cc2)nc1Cc1ccnc(C(F)(F)F)c1 [Compound 188]
5

Fill blank: measured Plant response rating, Nutsedge, Yellow of the molecule Cc1nn(-c2ccc(C(F)(F)F)cc2)nc1Oc1ccnc(C(F)(F)F)c1 [Compound 120] is ____.
0

---
Which Plant response rating, Nutsedge, Yellow is listed for FC(F)(F)COc1nn(-c2ccc(C(F)(F)F)cc2)nc1Cc1ccnc(C(F)(F)F)c1 [Compound 14] ?
0

Look up Plant response rating, Nutsedge, Yellow for this molecule: Cc1nn(-c2ccc(F)c(C(F)(F)F)c2)nc1Cc1ccnc(C(F)(F)F)c1 [Compound 156]
0
